Assay: Saturated solubility of sildenafil in water and organic-aqueous solvents (shake flask, HPLC)
Assay type: physicochemical
Conditions: water, pH 4, aqueous buffer, thermodynamic from solid; read-out: aqueous saturated solubility
reported-metric: solubility

Annotate the compound CCCc1nn(C)c2c(=O)[nH]c(-c3cc(S(=O)(=O)N4CCN(C)CC4)ccc3OCC)nc12 [sildenafil] with its measured solubility. < 5000 µg/mL

###

Experiment: Saturated solubility of sildenafil in water and organic-aqueous solvents (shake flask, HPLC)
Assay type: physicochemical
Conditions: water, pH 4.55, aqueous buffer, thermodynamic from solid; read-out: aqueous solubility
reported-metric: solubility
Reply with the number, then its unit.

Give the measured solubility for CCCc1nn(C)c2c(=O)[nH]c(-c3cc(S(=O)(=O)N4CCN(C)CC4)ccc3OCC)nc12 3340 µg/mL

###

Assay: Saturated solubility of vardenafil API in water and organic-aqueous solvents (shake flask, HPLC)
Assay type: physicochemical
Conditions: water, pH 4, aqueous buffer, thermodynamic from solid, pH4; read-out: mean saturated solubility in water
Counter-ions that a name gives are not always drawn.
reported-metric: solubility

Look up solubility of CCCc1nc(C)c2c(=O)[nH]c(-c3cc(S(=O)(=O)N4CCN(CC)CC4)ccc3OCC)nn12 [vardenafil API, vardenafil hydrochloride trihydrate] and report it. < 20 mg/mL
